- Assay comment: ASSAY II: proton transport across lipid membranes
- Type: biochemical
- Details: 0.0116 mM final concentration
For each entry below, report its % Decrease in Fluorescence value.
Give bare numbers, in %.

Worked examples, 2 compounds total:
[[record]]
structure_notation = "COC(=O)CC[C@@H](C)[C@H]1CC[C@H]2[C@@H]3[C@H](O[C@H]4O[C@H](CO)[C@@H](O)[C@H](O)[C@H]4O)C[C@@H]4C[C@H](OC(=O)c5ccc(OC)cc5)CC[C@]4(C)[C@H]3C[C@H](O[C@H]3O[C@H](CO)[C@@H](O)[C@H](O)[C@H]3O)[C@]12C"
unit_abbrev = "%"
observed_measurement = 32.2

[[record]]
structure_notation = "C[C@H](CCC(=O)O)[C@H]1CC[C@H]2[C@@H]3[C@H](O[C@@H]4O[C@H](CO)[C@@H](O)[C@H](O)[C@H]4O)C[C@H]4C[C@H](O)CC[C@]4(C)[C@H]3C[C@H](O[C@@H]3O[C@H](CO)[C@@H](O)[C@H](O)[C@H]3O)[C@]12C"
unit_abbrev = "%"
observed_measurement = 70.6


Alright, here's another compound for you.
Please list % Decrease in Fluorescence recorded for the compound `COC(=O)CC[C@@H](C)[C@H]1CC[C@H]2[C@@H]3[C@H](O[C@H]4O[C@H](CO)[C@@H](O)[C@H](O)[C@H]4O)C[C@H]4C[C@H](OC(=O)c5ccccc5)CC[C@]4(C)[C@H]3C[C@H](O[C@H]3O[C@H](CO)[C@@H](O)[C@H](O)[C@H]3O)[C@]12C`
22.0
